Tested on: Human papillomavirus type 1a E7 protein (residues 1-88)
experimental details: HPV1a E7 small-molecule binders, primary screen, biochemical, small-molecule microarray, residues 1-88, 635 nm (AID 1129)
test settings: small-molecule microarray binding, fluorescence 635 nm; higher = more signal
Give Y when the value for composite z-score is at least 0.6. Give N when it is less.

Some solved cases for reference:
COc1cccc([C@H]2Oc3ccc(OC)cc3C(=NOCC[C@@H]3C=C[C@H](OC(C)=O)[C@@H](COC(C)=O)O3)[C@@H]2O)c1: N
CC(CCN1CCc2nc(-c3ccccc3)c(-c3ccccc3)cc2C1)=NO[C@@H](C)c1cc(-c2c(C)cc(C)cc2C)no1: N
CC(C)=CCCC(C)=CCON=C1C[C@@H](O)[C@@H](O)[C@@H]2[C@@H]3C(=O)N(Cc4ccc5c(c4)OCO5)C(=O)[C@@H]3CC[C@@H]12: Y
CC(=O)OC[C@H]1O[C@H](CC=NO[C@@H](C)c2cn([C@H](CO)Cc3ccccc3)nn2)C=C[C@@H]1OC(C)=O: Y

Kindly review the next compound as well.
query: For this compound, is measured composite z-score 0.6 or higher? O=C1[C@H]2[C@H]3[C@H](O)[C@H](O)CC(=NOC[C@@H](O)COCc4ccco4)[C@@H]3CC[C@H]2C(=O)N1c1cccc(Oc2ccccc2)c1
result: N
